TARGET OR SYSTEM: Cannabinoid receptor 1 (Rattus norvegicus, UniProt P20272)
Sequence (P20272 whole entry): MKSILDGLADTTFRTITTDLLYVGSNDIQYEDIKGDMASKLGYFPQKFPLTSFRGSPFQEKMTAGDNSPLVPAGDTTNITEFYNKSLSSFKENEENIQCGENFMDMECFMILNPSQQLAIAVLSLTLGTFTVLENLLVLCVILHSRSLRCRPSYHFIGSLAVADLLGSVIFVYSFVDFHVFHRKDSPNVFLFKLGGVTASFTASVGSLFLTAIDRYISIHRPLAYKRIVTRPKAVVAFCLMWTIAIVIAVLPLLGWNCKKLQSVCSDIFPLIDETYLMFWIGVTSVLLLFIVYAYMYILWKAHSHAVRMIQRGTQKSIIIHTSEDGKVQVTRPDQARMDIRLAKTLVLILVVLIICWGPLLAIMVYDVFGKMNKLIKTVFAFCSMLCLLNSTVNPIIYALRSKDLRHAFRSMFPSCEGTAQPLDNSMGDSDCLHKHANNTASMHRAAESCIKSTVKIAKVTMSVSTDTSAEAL
MEASUREMENT DESCRIPTION: Binding affinity for Cannabinoid receptor 1 by the ability to displace radiolabeled CP-55940 from purified rat forebrain synaptosomes

# MOLECULE, TARGET OR SYSTEM, UNITS, Ki
rows = [
    ("CCCCCCC1(c2cc(O)c3c(c2)OC(C)(C)[C@@H]2CC=C(C)C[C@@H]32)CC1(Br)Br (stereo partly drawn)", "Cannabinoid receptor 1 (Rattus norvegicus, UniProt P20272)", "nM", 0.71),
    ("C=C(C)C1CCC(C)=CC1c1c(O)cc(C2(CCCCCC)CC2)cc1O (stereo not drawn)", "Cannabinoid receptor 1 (Rattus norvegicus, UniProt P20272)", "nM", 59),
    ("C=C(C)C1CCC(C)=CC1c1c(O)cc(C2(CCCCCC)SCCS2)cc1O (stereo not drawn)", "Cannabinoid receptor 1 (Rattus norvegicus, UniProt P20272)", "nM", 136),
]

---

TARGET OR SYSTEM: Cannabinoid receptor 2 (Mus musculus, UniProt P47936)
Sequence (P47936 whole entry): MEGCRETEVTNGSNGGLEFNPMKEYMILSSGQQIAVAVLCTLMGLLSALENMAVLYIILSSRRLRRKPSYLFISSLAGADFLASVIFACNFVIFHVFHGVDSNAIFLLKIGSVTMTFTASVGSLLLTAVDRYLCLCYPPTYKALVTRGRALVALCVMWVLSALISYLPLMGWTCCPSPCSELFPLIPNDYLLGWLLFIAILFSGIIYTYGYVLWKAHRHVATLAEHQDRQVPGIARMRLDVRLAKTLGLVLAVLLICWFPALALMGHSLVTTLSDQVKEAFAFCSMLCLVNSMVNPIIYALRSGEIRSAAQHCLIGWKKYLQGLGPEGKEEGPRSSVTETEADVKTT
MEASUREMENT DESCRIPTION: Binding affinity for Cannabinoid receptor 2 by the ability to displace radiolabeled CP-55940 from mouse spleen synaptosomes
Rule: Ki below 30 nM gives y, anything at or above gives n.

# COMPOUND, ASSIGNED CLASS
records = [
    ("C=C(C)C1CCC(C)=CC1c1c(O)cc(C2(CCCCCC)CC2(Br)Br)cc1O (centres undefined)", "n"),
    ("C=C(C)C1CCC(C)=CC1c1c(O)cc(C2(CCCCCC)CC2(Cl)Cl)cc1O (centres undefined)", "n"),
    ("C=C(C)C1CCC(C)=CC1c1c(O)cc(C2(CCCCCC)CC2)cc1O (centres undefined)", "n"),
    ("CCCCCCC1(c2cc(O)c3c(c2)OC(C)(C)[C@@H]2CC=C(C)C[C@@H]32)CC1(Br)Br (some centres undefined)", "y"),
    ("C=C(C)C1CCC(C)=CC1c1c(O)cc(C2(CCCCCC)SCCS2)cc1O (centres undefined)", "n"),
    ("C=C(C)[C@@H]1CCC(C)=C[C@H]1c1c(O)cc(CCCCC)cc1O", "n"),
    ("CCCCCCC1(c2cc(O)c3c(c2)OC(C)(C)[C@@H]2CC=C(C)C[C@@H]32)CC1(Cl)Cl (some centres undefined)", "y"),
    ("CCCCCCC(C)(C)c1cc(O)c2c(c1)OC(C)(C)[C@@H]1CC=C(C)C[C@@H]21", "y"),
    ("CCCCCCC1(c2cc(O)c3c(c2)OC(C)(C)[C@@H]2CC=C(C)C[C@@H]32)CC1", "y"),
]

---

As shown below, each of these molecules has a reported pKi value.
TARGET OR SYSTEM: Cannabinoid receptor 1 (Rattus norvegicus, UniProt P20272)
MEASUREMENT DESCRIPTION: Binding affinity for Cannabinoid receptor 1 by the ability to displace radiolabeled CP-55940 from purified rat forebrain synaptosomes
pKi: −log10 of the molar value.

# MOLECULE, pKi
records = [
    ("C=C(C)C1CCC(C)=CC1c1c(O)cc(C2(CCCCCC)CC2(Br)Br)cc1O (stereo not given)", 6.72),
    ("C=C(C)C1CCC(C)=CC1c1c(O)cc(C2(CCCCCC)CC2(Cl)Cl)cc1O (stereo not given)", 6.18),
    ("CCCCCCC(C)(C)c1cc(O)c2c(c1)OC(C)(C)[C@@H]1CC=C(C)C[C@@H]21", 9.08),
    ("CCCCCCC1(c2cc(O)c3c(c2)OC(C)(C)[C@@H]2CC=C(C)C[C@@H]32)CC1", 9.36),
    ("CCCCCCC1(c2cc(O)c3c(c2)OC(C)(C)[C@@H]2CC=C(C)C[C@@H]32)CC1(Cl)Cl (stereo not given in full)", 8.90),
]

Hello, the source for this data is ChEMBL document CHEMBL1135957, in case you need it.
